pKi: −log10 of the molar value. Counter-ions that a name gives are not always drawn.
pKi data for rat 5-HT7a receptor (Rattus norvegicus) follow.

>  <Molecule>
CC(C)c1nc2c(c(-c3ccc(F)cc3)n1)CCC(O)C2 (stereo not drawn) [Example 110]

>  <Result>
< 5.00

$$$$
>  <Molecule>
Cc1cc(-c2nc(C(C)C)nc3c2CCNC3)cs1 [Example 88, hydrochloride]

>  <Result>
6.26

$$$$
>  <Molecule>
Cc1ccc(-c2nc(C(C)C)nc3c2CNCC3C)cc1 (stereo not drawn) [Example 102, hydrochloride]

>  <Result>
< 5.00

$$$$

stdin: For CC(C)c1nc2c(c(-c3ccc(F)cc3F)n1)CNCC2 [Example 27] , what is its reported pKi?
stdout: < 5.00

stdin: Now consider Cc1ccc(-c2nc(C3CCCC3)nc3c2CCNCC3)cc1 [Example 47] and answer again.
stdout: 7.52

stdin: Now consider Fc1ccc(-c2nc(C3CC3)nc3c2CNCC3)cc1 [Example 7] and answer again.
stdout: < 5.00

stdin: Now consider CC(C)Cc1nc2c(c(-c3ccsc3)n1)CNCC2 [Example 34] and answer again.
stdout: < 5.00

---

Ki data for rat 5-HT7a receptor (Rattus norvegicus) follow.
Where a name gives a salt, the structure may show the parent alone.
Field: numeric (nM). Do not append units.

>  <Molecule>
CC(C)c1nc2c(c(-c3ccc(F)cc3)n1)CCNCC2 [Example 50, hydrochloride]

>  <Measured on>
rat 5-HT7a receptor (Rattus norvegicus)
Sequence (P32305 whole entry): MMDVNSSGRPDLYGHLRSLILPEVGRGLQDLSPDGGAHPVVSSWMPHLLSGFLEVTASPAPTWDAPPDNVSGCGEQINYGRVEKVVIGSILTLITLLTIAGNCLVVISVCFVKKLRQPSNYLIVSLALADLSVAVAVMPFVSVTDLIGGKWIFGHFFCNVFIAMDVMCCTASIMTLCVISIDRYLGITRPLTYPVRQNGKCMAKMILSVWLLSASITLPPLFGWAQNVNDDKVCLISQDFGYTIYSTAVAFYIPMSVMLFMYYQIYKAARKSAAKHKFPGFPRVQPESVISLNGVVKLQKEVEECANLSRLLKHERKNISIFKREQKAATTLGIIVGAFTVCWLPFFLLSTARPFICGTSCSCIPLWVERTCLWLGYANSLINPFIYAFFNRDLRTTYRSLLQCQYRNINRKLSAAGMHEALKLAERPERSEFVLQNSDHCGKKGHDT

>  <Unit label>
nM

>  <Ki>
240

$$$$

Turning now to a further record.
stdin: For "Cc1ccc(-c2nc(C3CCCC3)nc3c2CNCC3)cc1" , what is its reported Ki?
stdout: 525

---

Measured Ki by item
# Measured on: human recombinant 5-HT2C receptor (Homo sapiens, UniProt P28335)
# Method notes: Affinity for 5HT2 receptor binding sites, h5-HT2C, [3H]mesulergine
# Setup conditions: CHO h5-HT2C membranes
Where a name gives a salt, the structure may show the parent alone.

Example cases with answers are listed next.
>  <Compound>
CC(C)Cc1nc2c(c(-c3ccncc3)n1)CNCC2

>  <Ki>
> 10000 nM

$$$$
>  <Compound>
COc1ccc(-c2nc(C3CCCC3)nc3c2CNCC3)cc1

>  <Ki>
200 nM

$$$$
>  <Compound>
CNC1CCc2nc(C(C)C)nc(-c3ccc(F)cc3)c2C1 (stereo not shown) [Example 109, hydrochloride]

>  <Ki>
> 10000 nM

$$$$

stdin: For CCC(C)c1nc2c(c(-c3ccc(F)cc3)n1)CNCC2 (stereo not shown) [Example 3, hydrochloride] , what is its reported Ki?
stdout: 1020 nM

stdin: Now consider Cc1cc(-c2nc(C(C)C)nc3c2CCN(C)C3)cs1 [Example 90, hydrochloride] and answer again.
stdout: 1000 nM

stdin: Now consider CC(C)c1nc(-c2ccccc2)c2c(n1)C(C)CNC2 (stereo not shown) and answer again.
stdout: 1000 nM

stdin: Now consider "CC(C)c1nc2c(c(-c3cccc(F)c3)n1)CNCC2" and answer again.
stdout: > 10000 nM

---

# Measured on: human recombinant 5-HT6 receptor (Homo sapiens, UniProt P50406)
# Sequence (P50406 whole entry): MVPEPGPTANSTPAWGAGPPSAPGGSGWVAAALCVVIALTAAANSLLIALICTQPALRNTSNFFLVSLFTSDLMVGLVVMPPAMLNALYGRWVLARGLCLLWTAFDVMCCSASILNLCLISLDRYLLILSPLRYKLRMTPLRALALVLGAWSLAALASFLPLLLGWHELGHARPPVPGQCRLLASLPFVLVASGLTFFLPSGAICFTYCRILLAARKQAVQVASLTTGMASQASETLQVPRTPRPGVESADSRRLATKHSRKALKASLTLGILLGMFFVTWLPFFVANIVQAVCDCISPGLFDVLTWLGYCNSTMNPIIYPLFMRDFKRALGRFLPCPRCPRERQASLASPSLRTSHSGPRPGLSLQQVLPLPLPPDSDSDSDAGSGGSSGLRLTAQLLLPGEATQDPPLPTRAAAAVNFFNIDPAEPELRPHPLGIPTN
# Method notes: Affinity for 5-HT6 receptor binding sites, [3H]LSD
# Setup conditions: HEK-293 h5-HT6 membranes
Structures can show the parent of a compound that is named as a salt.
Measured pKi by item
Please express pKi as -log10 of the molar concentration.

>  <Compound>
CC(C)N1CCc2c(nc(Cc3ccccc3)nc2-c2ccc(F)cc2)C1

>  <Metric>
pKi

>  <Measured number>
6.64

$$$$
>  <Compound>
Cc1ccc(-c2nc(Cc3ccccc3)nc3c2CNCC3)cc1

>  <Metric>
pKi

>  <Measured number>
6.70

$$$$
>  <Compound>
CC(C)c1nc2c(c(-c3ccc(F)cc3)n1)CCNCC2 [Example 50, hydrochloride]

>  <Metric>
pKi

>  <Measured number>
6.59

$$$$
>  <Compound>
COc1ccc(-c2nc(C3CCCC3)nc3c2CCN(C)CC3)cc1

>  <Metric>
pKi

>  <Measured number>
7.22

$$$$
>  <Compound>
CN1CCc2c(nc(Cc3ccccc3)nc2-c2ccc(F)cc2)C1 [Example 82, hydrochloride]

>  <Metric>
pKi

>  <Measured number>
6.64

$$$$
>  <Compound>
Fc1ccc(-c2nc(Cc3ccccc3)nc3c2CCNC3)cc1 [Example 76, hydrochloride]

>  <Metric>
pKi

>  <Measured number>
6.52

$$$$
>  <Compound>
Fc1ccc(-c2nc(Cc3ccccc3)nc3c2CNCCC3)cc1 [Example 69, hydrochloride]

>  <Metric>
pKi

>  <Measured number>
5.15

$$$$
>  <Compound>
COc1ccc(-c2nc(C3CCCC3)nc3c2CCNCC3)cc1

>  <Metric>
pKi

>  <Measured number>
7.62

$$$$

stdin: # get_value(readout= pKi, system= human recombinant 5-HT6 receptor (Homo sapiens, UniProt P50406)) for "Cc1ccc(-c2nc(C3CCCC3)nc3c2CNCC3)cc1"
stdout: 6.48

stdin: Now consider "Cc1ccc(-c2nc(C3CCCC3)nc3c2CCN(C)CC3)cc1" and answer again.
stdout: 7.70

---

# Measured on: human recombinant 5-HT2C receptor (Homo sapiens)
# Sequence (P28335 33-458): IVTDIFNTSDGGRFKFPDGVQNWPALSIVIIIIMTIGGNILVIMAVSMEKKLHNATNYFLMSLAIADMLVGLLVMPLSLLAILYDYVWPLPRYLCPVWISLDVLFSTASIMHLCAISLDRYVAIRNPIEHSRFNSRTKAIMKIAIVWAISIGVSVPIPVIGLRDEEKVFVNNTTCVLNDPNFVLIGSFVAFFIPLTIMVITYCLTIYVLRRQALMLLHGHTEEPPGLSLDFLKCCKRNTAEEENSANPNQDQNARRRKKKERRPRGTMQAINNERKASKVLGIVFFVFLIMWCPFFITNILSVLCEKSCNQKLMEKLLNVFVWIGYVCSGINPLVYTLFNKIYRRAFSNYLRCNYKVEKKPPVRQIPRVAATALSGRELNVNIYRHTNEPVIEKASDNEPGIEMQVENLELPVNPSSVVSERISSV
# Method notes: Affinity for 5HT2 receptor binding sites, h5-HT2C, [3H]mesulergine
# Setup conditions: CHO h5-HT2C membranes
Counter-ions that a name gives are not always drawn.
Metric: pKi
Please express pKi as -log10 of the molar concentration.

Example cases with answers are listed next.
>  <Molecule>
Cc1ccc(-c2nc(C3CCCC3)nc3c2CCN(C)CC3)cc1

>  <pKi>
7.54

$$$$
>  <Molecule>
CC(C)c1nc2c(c(-c3ccsc3)n1)CCNC2 [Example 89, hydrochloride]

>  <pKi>
5.85

$$$$
>  <Molecule>
COc1ccc(-c2nc(C3CCCC3)nc3c2CCNCC3)cc1

>  <pKi>
7.00

$$$$
>  <Molecule>
Cc1ccc(-c2nc(C(C)C)nc3c2CNCC3C)cc1 (stereo not drawn) [Example 102, hydrochloride]

>  <pKi>
6.64

$$$$
>  <Molecule>
Cc1ccc(-c2nc(C3CCCC3)nc3c2CNCC3)cc1

>  <pKi>
7.22

$$$$
>  <Molecule>
Cc1ccc(-c2nc(C3CCCC3)nc3c2CCNCC3)cc1

>  <pKi>
7.66

$$$$
>  <Molecule>
CC(C)(C)c1nc2c(c(-c3ccc(F)cc3)n1)CNCC2

>  <pKi>
7.05

$$$$
>  <Molecule>
CC(C)c1nc2c(c(-c3ccc(F)cc3)n1)CCCNC2 [Example 65, hydrochloride]

>  <pKi>
6.24

$$$$

stdin: For Fc1ccc(-c2nc(Cc3ccccc3)nc3c2CCNC3)cc1 [Example 76, hydrochloride] , what is its reported pKi?
stdout: 7.12

stdin: Now consider "CC(C)Cc1nc2c(c(-c3ccsc3)n1)CNCC2" and answer again.
stdout: 6.00

stdin: Now consider CC(C)c1nc(-c2ccc(F)cc2)c2c(n1)C(C)CNC2 (stereo not drawn) [Example 100, hydrochloride] and answer again.
stdout: 6.52

stdin: Now consider "Fc1ccc(-c2nc(Cc3ccccc3)nc3c2CNCC3)cc1F" and answer again.
stdout: 5.30

---

# Measured on: human recombinant 5-HT2C receptor (Homo sapiens, UniProt P28335)
# Sequence (P28335 33-458): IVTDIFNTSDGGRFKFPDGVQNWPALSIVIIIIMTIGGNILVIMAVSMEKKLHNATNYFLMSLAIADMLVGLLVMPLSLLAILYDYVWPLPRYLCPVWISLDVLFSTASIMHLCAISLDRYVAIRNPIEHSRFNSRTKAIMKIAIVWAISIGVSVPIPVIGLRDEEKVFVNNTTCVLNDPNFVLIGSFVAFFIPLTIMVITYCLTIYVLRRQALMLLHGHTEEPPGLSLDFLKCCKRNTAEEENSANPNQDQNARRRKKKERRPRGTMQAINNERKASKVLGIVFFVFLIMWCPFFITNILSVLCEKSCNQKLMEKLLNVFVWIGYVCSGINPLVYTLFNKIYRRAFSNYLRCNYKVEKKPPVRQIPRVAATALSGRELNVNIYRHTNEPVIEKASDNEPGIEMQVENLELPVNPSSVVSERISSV
# Method notes: Affinity for 5HT2 receptor binding sites, h5-HT2C, [3H]mesulergine
# Setup conditions: CHO h5-HT2C membranes
Counter-ions that a name gives are not always drawn.
Measured Ki by item
Field: numeric (µM). Do not append units.

stdin: For Cc1ccc(-c2nc(Cc3ccccc3)nc3c2CCN(Cc2ccccc2)C3)cc1 [Example 71] , what is its reported Ki?
stdout: 3.58

stdin: Now consider CNCCc1cc(-c2ccc(F)cc2)nc(C(C)(C)C)n1 [Example 166] and answer again.
stdout: 0.17

stdin: Now consider Cc1nc2c(c(-c3ccccc3)n1)CCNCC2 [Example 52] and answer again.
stdout: 9

stdin: Now consider CNC1CCc2c(nc(C(C)C)nc2-c2ccc(F)cc2)C1 (stereo not drawn) [Example 108, hydrochloride] and answer again.
stdout: 1

stdin: Now consider FC(F)(F)c1ccc(-c2nc(Cc3ccccc3)nc3c2CCNCC3)cc1 [Example 56] and answer again.
stdout: 0.038

stdin: Now consider Fc1ccc(-c2nc(Cc3ccccc3)nc3c2CNCC3)cc1 [Example 2] and answer again.
stdout: 0.51

These entries and their values trace back to patent US7598255B2.
